Reference source for all entries: PubChem BioAssay (NCI)

growth overview
# Test system: SNB-75 CNS
# experimental.protocol: NCI-60 one-dose screen, 48 h (100 = growth as untreated, 0 = no growth, -100 = all killed)
# test.conditions: 10 µM unless noted
This is part of a sample that, as a whole, favours compounds with a hit. Of some 83,000 tested, about 20% had one in any assay.

| compound | readout.units | growth |
| --- | --- | --- |
| Cc1ccc(S(=O)(=O)Nc2cc(Sc3ccccc3)c(O)c3ccccc23)cc1 | % | 98.4 |
| CCOC(=O)C(=Cc1ccc(C#N)cc1)C(=O)OCC | % | 42.9 |
| COc1ccc(/C=C/C(=O)c2cc3c(N)c(C(=O)Nc4ccccc4)sc3nc2C)cc1 | % | 11.9 |
| CN1Cn2c(ccc2C(F)(F)F)C(=O)CS1(=O)=O | % | 79.1 |
| CCCc1cc(C(N)=S)ccn1 | % | 103 |
| COc1c(F)cc(-n2c(C(=O)N3CC(F)C3)cc3cccnc32)cc1F | % | 82.2 |
| CC(=O)OC[C@]12CCC(C)(C)C=C1[C@H]1CC[C@@H]3[C@@]4(C)CCCNC(C)(C)[C@@H]4CC[C@@]3(C)[C@]1(C)CC2 | % | 71.8 |
| O=C1c2cccc3cccc(c23)C(=O)N1N1C(=O)c2cccc3c(N4CCNCC4)ccc(c23)C1=O | % | 92.2 |
| CCCCC#Cc1c(/C=C(\CCCC)SCC)n(C)c(=O)[nH]c1=O | % | 90.1 |
| CCCCCCCCN(CCCCCCCC)CC(O)c1cc(Cl)ccc1OC (centres undefined) | % | 76.5 |
| C=C1C(=O)O[C@H]2[C@H]1CC/C(CNS(=O)(=O)c1ccc3ccccc3c1)=C\CC[C@@]1(C)O[C@@H]21 | % | 38.2 |
| O=C1c2cc3c(cc2-c2c1c1ccc(Cl)cc1c(=O)n2CCCn1ccnc1)OCO3 | % | 0.456 |
| COc1cc2nc3cc([N+](=O)[O-])ccc3c(NCCNCC(C)(C)O)c2cc1OC | % | -55.7 |
| COc1cc(/C=C(/c2ccccc2)[N+](=O)[O-])c(OC)c2c1OCO2 | % | -92.6 |
| CN1CCN(Cc2ccc(NC(=O)c3cccc(C#Cc4c(N)ncc5ccc(F)cc45)c3)cc2C(F)(F)F)CC1 | % | -92.4 |
| Cc1nc2sc(C(=O)Nc3cccc4ccccc34)c(N)c2cc1C(=O)/C=C/c1ccccc1 | % | 8.27 |
| CCCCCCCCCCCCCCCCCCOc1cccc(CC(=O)OCC[N+](CC)(CC)CC)c1 | % | 61.9 |
| COc1cccc(C2C(C#N)=C(N)Oc3cc(OCCCCCC[P+](c4ccccc4)(c4ccccc4)c4ccccc4)ccc32)c1 (centres undefined) | % | -71.3 |
| COc1cc2c(cc1OCCCOC1=C=C=C(c3ccc4c(c3)c3cc(-c5ccc(OCCCOc6cc7c(cc6OC)C(=O)N6CCC[C@H]6C=N7)cc5)ccc3n4S(=O)(=O)c3ccc(C)cc3)C=C1)N=C[C@@H]1CCCN1C2=O | % | 4.32 |

----------
# Test system: PC-3 prostate
# experimental.protocol: NCI-60 one-dose screen, 48 h (100 = growth as untreated, 0 = no growth, -100 = all killed)
# test.conditions: 10 µM unless noted
About 83,000 compounds went through this panel and 20% of them were active in at least one assay; those are over-represented in the sample as a whole.
Label T when growth < 60%; otherwise F.

| compound | group.label |
| --- | --- |
| COc1ccc(-c2cc(-c3cccc(Cl)c3)c(C#N)c(=O)[nH]2)c(OC)c1 | F |
| Cc1nc(-n2[nH]c(=O)ccc2=O)sc1N=Nc1ccccc1 | F |
| O=C1OCC2=C1C(c1cccc([N+](=O)[O-])c1)c1cc3c(cc1N2CCO)CCC3 (stereo unspecified) | T |
| CCOC(=O)c1nc2c3ccccc3cnn2c1C(=O)c1ccc(OC)cc1 | F |
| CCOC(=O)C(=Cc1ccc(C#N)cc1)C(=O)OCC | T |
| C/C=C(/C)C(=O)O[C@@H]1CC(C)(C)CC2C34OC(=O)[C@@]21CC[C@@]3(C)[C@]1(C)CCC2C(C)(C)C(=O)CC[C@]2(C)C1C[C@@H]4Cl (stereo partly specified) | F |
| Nc1[nH]nc(Nc2ccccc2)c1-c1nc2ccccc2s1 | T |
| O=C(CCN1CCOCC1)Nc1cccc(-n2cc(-c3ccncc3)c(-c3ccc(Cl)c(O)c3)n2)c1 | T |
| COc1ccc(Nc2nn3c(SCC(=O)c4ccc(C)cc4)nnc3s2)cc1 | F |
| COc1cc(Nc2nc3ccccc3cc2C(=O)Nc2ccc(F)c(F)c2)cc(OC)c1OC | T |
| COC1=CC(c2ccc[nH]2)=N/C1=C\c1[nH]c(C)c(C(=O)Oc2ccccc2)c1C | T |
| NCCOCCOc1ccccc1 | F |
| COc1ccc(/C=C2/C(=O)N=C3N2NC(c2ccccc2)=CN3c2ccccc2)cc1 | F |
| COc1cc2cc(NCc3ccncc3)nc(C)c2cc1OC | F |
| O=C(Nc1ncc(Cc2cccc(C(F)(F)F)c2)s1)c1ccc2c(c1)OCCO2 | T |
| COc1ccccc1/C=C1\COc2ccc(O)cc2C1=O | F |
| CC1(C)C(N)=Nc2cc(OCCCCN3Cc4ccccc4C3)c(OCC3CC3)cc21 | F |
| CSc1nnc(-c2cc3c([nH]c4ccccc43)c(-c3cccc(O)c3)n2)n1-c1ccc(C)cc1 | T |

----------
# Test system: SK-OV-3 ovarian
# experimental.protocol: NCI-60 one-dose screen, 48 h
# test.conditions: 10 µM unless noted
This is part of a sample that, as a whole, favours compounds with a hit. Of some 83,000 tested, about 20% had one in any assay. Active and inactive are the calls of the source. How the source made its calls: active means growth percent below 10; inactive means the rest.
Classes used: 1 = active, 0 = inactive

| molecule | measured.target | group.label |
| --- | --- | --- |
| O=C1OCC2=C1C(c1cccc(C(F)(F)F)c1)c1cc3c(cc1N2CCO)CCC3 (centres undefined) | SK-OV-3 ovarian | 1 |
| Cc1ccc(-c2nc3nc(-c4ccc(F)cc4)nc(N4CCCNCC4)c3o2)cc1 | SK-OV-3 ovarian | 1 |
| COc1ccc(C/C(C)=C(\c2ccc(O)cc2)c2ccc(OCCCN(C)C)cc2)cc1 | SK-OV-3 ovarian | 0 |
| O=C(Nc1ccc2ncsc2c1)c1csc(Nc2ccc3[nH]ncc3c2)n1 | SK-OV-3 ovarian | 0 |
| O=C1Nc2ccccc2/C1=C/c1cccn1CCCCCn1c2ccccc2c(=O)c2ccccc21 | SK-OV-3 ovarian | 0 |
| Clc1ccc2c(c1)N(c1ncnc3ccc(-c4cnc5[nH]ccc5c4)cc13)CC2 | SK-OV-3 ovarian | 0 |
| Cc1n(Cc2ccc3ccccc3c2)c(Cl)c(Cl)[n+]1Cc1ccc2ccccc2c1 | SK-OV-3 ovarian | 0 |
| CCC(=C(c1ccc(OCCCN(C)C)cc1)c1ccc(OCCCN(C)C)cc1)c1ccc(Cl)cc1 | SK-OV-3 ovarian | 1 |
| Nc1n[nH]c2cccc(C#Cc3cccc(C(=O)Nc4ccc(CN5CCOCC5)c(C(F)(F)F)c4)c3)c12 | SK-OV-3 ovarian | 0 |

----------
# System: SNB-75 CNS
# experimental.protocol: NCI-60 one-dose screen, 48 h
# test.conditions: 10 µM unless noted
The panel holds about 83,000 compounds, 20% with a hit somewhere; the sample as a whole holds those more often. Calls of active or inactive are those of the source. How the source made its calls: active means growth percent below 10; inactive means the rest.
Classes used: Yes = active, No = inactive

| compound | group.label |
| --- | --- |
| O=C(/C=C/C12c3ccccc3C(c3ccccc31)C1C(=O)NC(=O)C12)c1ccncc1 (stereo not given) | No |
| Clc1ccc(Nc2nc(Nc3ccc(Cl)cc3)nc(Nc3ccc(-c4cc(-c5cccc(Cl)c5)on4)cc3)n2)cc1 | No |
| O=C(CCCOc1ccc(Br)cc1)Nc1ncc(Cc2ccc(F)cc2)s1 | No |
| COC(=O)[C@H]1Cc2c([nH]c3ccccc23)[C@@H](c2cccs2)N1 | No |
| N#CSc1c[nH]c2ccc(/C=C/C(=O)/C=C(/C=C/c3ccc4[nH]cc(SC#N)c4c3)OB(F)F)cc12 | No |
| C=CCNC(=O)Cc1c(-c2ccc(OC)cc2)oc2c(OC)c3c(c(OC)c12)OCO3 | No |
| COc1ccc(-c2csc(NC(=O)CN3CCN(CCO)CC3)n2)cc1NS(=O)(=O)c1cccc2c(N(C)C)cccc12 | No |
| CC1=CC=C(NC(=O)/C=C/c2ccccc2)CC1Nc1nccc(-c2cccnc2)n1 (stereo not given) | Yes |
| OCc1cc(CN2CCCCC2)c(O)c2ncccc12 | No |
| COCCOc1cc2ncnc(N3CCN(S(=O)(=O)c4ccccc4Cl)CC3)c2cc1OCCOC | No |
| CCN(CC)CCOc1ccccc1C | No |
| O=C(CC1(O)C(=O)Nc2ccc(Br)cc21)c1ccc(Cl)cc1 (stereo not given) | No |
| COc1ccc(-c2cc(-c3cccnc3)nc3sc4c(Cl)nnnc4c23)cc1OC | No |
| Nc1ccc(-c2ccc(N)c(Br)c2)cc1Br | No |
| N=C1/C(=C2\NC3C=CC=CC3S2)C(c2ccc(Cl)cc2)C2C(=O)N(c3ccccc3)C(=S)N12 (stereo not given) | No |
| O=C(Nc1ccc(F)cc1)c1cc2cc(Nc3nc(-c4ccccc4)nc4ccccc34)ccc2oc1=O | No |
| C=CCOc1ccc(/C=C2\SC(=S)N(CCc3ccc(O)cc3)C2=O)cc1 | No |
| C#CCOc1cccc(Nc2ncc3ncn(C4CCN(C(=O)CCl)C4)c3n2)c1 (stereo not given) | No |
| CCCCCCNC(=O)Oc1ccc(/C(=C(/CC)Cc2ccccc2)c2ccc(OCCCN(C)C)cc2)cc1 | No |
| COc1ccc(/C(C)=C(\c2ccc(OCCN3CCOCC3)cc2)c2ccc(OC(=O)C3CCCCC3)cc2)cc1 | No |
